- testDescription: NCI Yeast Anticancer Drug Screen. Data for the bub3 strain (AID 167)
- conditionNotes: S. cerevisiae bub3 mutant strain, at 50.0 µM, hits give high values
About 79,000 compounds went through this panel and 15% of them were active in at least one assay; those are over-represented in the sample as a whole.
endpointLabel: growth inhibition (%)

INSERT INTO measurements (compound, endpointlabel, reportedmeasurement) VALUES
  ('Oc1ccc(O)c2c1CC=CC2', 'growth inhibition', 18.3),
  ('CCCCCC(CC)OC(=O)Nc1cccc2ccccc12 (configuration not stated)', 'growth inhibition', -3.35),
  ('COC1(C)COC(C)(OC)CO1 (configuration not stated)', 'growth inhibition', 12.8),
  ('CC1=NN(C(=O)c2ccncc2)C(=O)C1N=Nc1ccc([N+](=O)[O-])cc1Cl (configuration not stated)', 'growth inhibition', -2.1),
  ('O=C(CC(=O)c1ccc(Cl)cc1)c1ccc(Cl)cc1', 'growth inhibition', 8.9),
  ('CC1CCN(C(=O)Nc2ccccc2)CC1', 'growth inhibition', -6.05),
  ('CCOc1nc(N)nc(C)c1N=Nc1ccccc1OC', 'growth inhibition', 11.5);
